Every entry's value here was drawn from ChEMBL document CHEMBL3784917.

# experimental system: Lysine-specific demethylase 2A (Homo sapiens)
# Sequence (Q9Y2K7 whole entry): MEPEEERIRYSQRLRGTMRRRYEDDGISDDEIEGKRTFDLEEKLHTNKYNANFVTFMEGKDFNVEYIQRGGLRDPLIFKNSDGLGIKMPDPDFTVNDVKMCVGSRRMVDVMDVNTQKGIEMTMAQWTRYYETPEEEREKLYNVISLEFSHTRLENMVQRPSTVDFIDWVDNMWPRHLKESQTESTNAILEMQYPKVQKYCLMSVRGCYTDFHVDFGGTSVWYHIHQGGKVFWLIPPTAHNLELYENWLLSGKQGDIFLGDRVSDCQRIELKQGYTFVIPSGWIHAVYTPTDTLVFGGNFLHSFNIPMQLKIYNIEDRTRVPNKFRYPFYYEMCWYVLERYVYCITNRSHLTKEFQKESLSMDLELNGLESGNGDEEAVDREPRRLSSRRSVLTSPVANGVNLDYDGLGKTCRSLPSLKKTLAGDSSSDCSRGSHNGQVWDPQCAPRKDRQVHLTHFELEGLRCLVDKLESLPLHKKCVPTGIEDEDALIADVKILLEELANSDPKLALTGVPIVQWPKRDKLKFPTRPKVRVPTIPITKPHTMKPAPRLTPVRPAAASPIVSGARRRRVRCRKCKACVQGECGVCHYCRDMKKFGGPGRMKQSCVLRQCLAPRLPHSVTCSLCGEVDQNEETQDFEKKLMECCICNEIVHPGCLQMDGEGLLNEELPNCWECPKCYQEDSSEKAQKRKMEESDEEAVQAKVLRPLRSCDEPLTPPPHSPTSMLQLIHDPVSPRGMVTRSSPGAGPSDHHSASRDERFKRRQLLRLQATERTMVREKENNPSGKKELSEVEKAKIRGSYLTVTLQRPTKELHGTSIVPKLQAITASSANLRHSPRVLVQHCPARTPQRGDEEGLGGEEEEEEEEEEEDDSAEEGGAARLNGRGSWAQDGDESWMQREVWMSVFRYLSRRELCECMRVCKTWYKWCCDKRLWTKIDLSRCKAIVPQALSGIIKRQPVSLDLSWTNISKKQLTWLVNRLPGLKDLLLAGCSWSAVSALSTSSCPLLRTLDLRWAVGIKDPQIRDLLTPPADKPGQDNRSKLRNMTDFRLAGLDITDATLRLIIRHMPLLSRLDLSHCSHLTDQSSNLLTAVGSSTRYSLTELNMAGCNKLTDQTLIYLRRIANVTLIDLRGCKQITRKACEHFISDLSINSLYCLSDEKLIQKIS
# method description: Inhibition of KDM2A (unknown origin) preincubated for 15 mins followed by histone substrate addition measured after 1 hr by alphascreen assay
measurement name: pIC50
Schema: pIC50 number; meaning minus log10 of the concentration expressed in molar units.

// Cc1ccsc1C(NC(=O)c1ccccc1)c1cc(Cl)c2cccnc2c1O (racemic) : pIC50 value = 4.47

====

# experimental system: Lysine-specific demethylase 5A (Homo sapiens)
# Sequence (P29375 whole entry): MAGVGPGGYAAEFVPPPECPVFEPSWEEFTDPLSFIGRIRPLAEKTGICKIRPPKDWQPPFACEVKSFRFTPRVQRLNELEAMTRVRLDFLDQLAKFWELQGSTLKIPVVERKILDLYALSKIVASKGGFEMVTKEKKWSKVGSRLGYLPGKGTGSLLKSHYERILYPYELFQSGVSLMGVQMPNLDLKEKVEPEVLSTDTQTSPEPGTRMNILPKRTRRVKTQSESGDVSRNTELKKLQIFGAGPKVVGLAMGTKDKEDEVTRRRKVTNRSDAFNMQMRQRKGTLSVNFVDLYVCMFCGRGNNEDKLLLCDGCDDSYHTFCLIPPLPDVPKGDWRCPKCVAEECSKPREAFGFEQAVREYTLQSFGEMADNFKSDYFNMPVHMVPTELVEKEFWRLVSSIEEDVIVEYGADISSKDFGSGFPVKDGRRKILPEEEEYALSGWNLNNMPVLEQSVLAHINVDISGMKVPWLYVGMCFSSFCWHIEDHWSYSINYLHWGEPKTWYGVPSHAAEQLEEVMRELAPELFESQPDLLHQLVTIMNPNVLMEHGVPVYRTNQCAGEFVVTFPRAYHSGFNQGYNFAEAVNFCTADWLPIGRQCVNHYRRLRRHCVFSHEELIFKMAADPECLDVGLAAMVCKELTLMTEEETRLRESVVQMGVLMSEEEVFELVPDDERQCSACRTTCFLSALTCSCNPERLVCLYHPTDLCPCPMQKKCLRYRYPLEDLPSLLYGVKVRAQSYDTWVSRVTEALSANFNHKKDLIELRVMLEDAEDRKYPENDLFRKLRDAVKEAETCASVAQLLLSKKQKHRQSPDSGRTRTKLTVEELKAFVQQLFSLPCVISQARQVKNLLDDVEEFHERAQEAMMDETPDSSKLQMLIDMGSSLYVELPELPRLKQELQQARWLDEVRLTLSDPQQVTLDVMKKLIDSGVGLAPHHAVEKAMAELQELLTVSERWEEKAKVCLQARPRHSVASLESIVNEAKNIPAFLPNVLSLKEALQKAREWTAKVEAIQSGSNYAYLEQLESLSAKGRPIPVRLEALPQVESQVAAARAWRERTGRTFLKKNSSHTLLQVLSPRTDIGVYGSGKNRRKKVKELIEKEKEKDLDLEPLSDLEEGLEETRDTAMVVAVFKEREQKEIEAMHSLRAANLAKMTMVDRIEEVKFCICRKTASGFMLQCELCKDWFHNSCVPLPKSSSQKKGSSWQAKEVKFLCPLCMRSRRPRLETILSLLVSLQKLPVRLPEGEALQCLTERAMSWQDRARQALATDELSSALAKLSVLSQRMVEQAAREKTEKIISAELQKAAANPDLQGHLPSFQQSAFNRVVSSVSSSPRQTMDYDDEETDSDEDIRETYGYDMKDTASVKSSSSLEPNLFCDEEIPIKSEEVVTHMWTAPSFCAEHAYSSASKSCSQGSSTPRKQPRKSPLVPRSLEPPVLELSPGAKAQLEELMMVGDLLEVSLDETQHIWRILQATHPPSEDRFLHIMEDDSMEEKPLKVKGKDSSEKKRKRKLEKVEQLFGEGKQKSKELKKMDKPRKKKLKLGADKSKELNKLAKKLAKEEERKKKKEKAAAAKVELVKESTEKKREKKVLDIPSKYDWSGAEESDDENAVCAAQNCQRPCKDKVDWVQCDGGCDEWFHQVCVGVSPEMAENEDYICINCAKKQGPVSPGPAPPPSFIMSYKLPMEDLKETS
measurement name: pIC50
Would you please state pIC50, meaning minus log10 of the concentration in mol/L, as a bare number?

The recorded pIC50 for `CCCCc1oc2ccccc2c1C(=O)c1cc(I)c(OCCCC[N+](C)(C)C)c(I)c1` is 4.39
